endpointLabel: melting point

INSERT INTO results (compound, endpointlabel, obsvalue) VALUES
  ('c1ccc2c(c1)ccc1cnsc12', 'melting point', '52 °C'),
  ('CCc1cc2c(s1)-n1c(C)nnc1C(N)N=C2c1ccccc1Cl (stereo unspecified)', 'melting point', '130 to 131 °C'),
  ('O=C(c1ccccc1)c1ccc2c([N+](=O)[O-])c(O)c(O)cc2c1', 'melting point', '196 to 205 °C');

Here is another compound to look at.
Return the recorded melting point value; entry: COC(=O)CCc1ncccc1O 94 to 96 °C

* * *

Listed next: entries and their corresponding melting point.

INSERT INTO assay_data (compound, endpointlabel, obsvalue) VALUES
  ('CCN(CC)CCOc1ccc(C(O)(CC)c2ccc(Cl)cc2)cc1 (stereo not given)', 'melting point', '50 to 51 °C'),
  ('CN1Cc2c(C#CI)ncn2-c2cccc(Cl)c2C1=O', 'melting point', '215 to 216 °C'),
  ('COc1cc(N(C)C)ccc1Nc1nc(Nc2ccc3c(c2)C(C)(C)CCC(=O)N3C)ncc1Cl', 'melting point', '244 to 263 °C');

Input Cc1nc2ccc3c(c2o1)OC(CN1CCC(n2c(=O)[nH]c4ccccc42)CC1)CO3 (stereo not given) , output reported melting point. 218 to 220 °C

Provide melting point value for the following compound: CC(C)(C)c1ccc(S(=O)(=O)N2c3ccccc3C[C@H]2C(=O)Cl)cc1 148 °C

Tell me melting point reported for O=C(Nc1nnc(SCC(=O)C23CC4CC(CC(C4)C2)C3)s1)C1CC1 218 to 219 °C

Fill in reported melting point for this entry: COCCOc1cc2ncc(C#N)c(Nc3ccc4cn[nH]c4c3)c2cc1OCCOC 105 to 110 °C

Identify measured melting point associated with CCOC(=O)C1=COc2ccccc2O1 42 °C

For the compound CCc1nnc(-c2ccc(OC)cc2)n1-c1ccc([N+](=O)[O-])cc1 , give its reported melting point. 178 °C

Could you please provide reported melting point for COc1ccc(OCC#CCCC(N)N2C(=O)c3ccccc3C2=O)cc1 (stereo not given) ? Thanks! 51 to 53 °C
